- protocol_notes: chemical genetic growth profiling, strain panel (AID 1159580);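 note: tested at 20 µM; growth read once vehicle control cultures reached saturation at 30 °C; 1 = growth at the plate median or of vehicle wells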
- measurement_conditions: S. cerevisiae deletion strains, growth OD, locus YLR342W, strain FKS1, hits give low values
About 2,000 (36%) of roughly 5,500 compounds were called active. Another 18% or so got no clear call; they are omitted. This is one part of the list.
// returns 0.0 unless normalized growth is strictly below 1, in which case 1.0

Q. Criterion: normalized growth strictly below 1. Is it met by "COc1ccc(-c2cc(=O)c3ccccc3o2)cc1OC" ?
A. 1.0

Q. API: query returns whether the molecule falls strictly under 1 in normalized growth. Query: "Nc1ccc(C(=O)Oc2ccccc2)c(O)c1"
A. 1.0

Q. # strict comparison: is reported normalized growth < 1? input = "COc1ccc(C(=O)/C=C/c2ccccc2)cc1"
A. 1.0

----------
# normalized growth per record follows
- protocol_notes: chemical genetic growth profiling, strain panel (AID 1159580);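 note: tested at 20 µM; growth read once vehicle control cultures reached saturation at 30 °C; 1 = growth at the plate median or of vehicle wells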
- measurement_conditions: S. cerevisiae deletion strains, growth OD, locus YLR370C, strain arc18, hits give low values
About 2,000 (36%) of roughly 5,500 compounds were called active. Roughly 18% stayed inconclusive and do not appear here. The list shows a part of the results.

>>> result("COc1cccc(-c2cc(=O)c3ccc(OC)cc3o2)c1")
"0.948 (inactive)"
>>> result("O=c1cc(-c2cccc(O)c2)oc2ccc(O)cc12")
"0.933 (inactive)"
>>> result("OC1C(O)C(O)C(O)C(O)C1O (stereo not given)")
"1 (inactive)"
>>> result("Nc1nc(N)c2nc(-c3ccccc3)c(N)nc2n1")
"0.995 (inactive)"
>>> result("ClC(Cl)=C(c1ccc(Cl)cc1)c1ccc(Cl)cc1")
"0.996 (inactive)"

Q. Output normalized growth of CC(=O)OCC(=O)[C@H]1CCC2C3CC=C4C[C@@H](O)CC[C@]4(C)C3CC[C@@]21C (stereo not given in full)
A. 1 (inactive)

Q. Provide one value: measured normalized growth of "N[C@H](CO)Cc1ccccc1"
A. 1.04 (inactive)

Q. Return normalized growth (reported value) for this molecule: CC(=O)[C@H]1CCC2C3CC=C4C[C@@H](OC(=O)CCC(=O)O)CC[C@]4(C)C3CC[C@@]21C (stereo not given in full)
A. 0.942 (inactive)

Q. Report normalized growth for "CN(C)CCC=C1c2ccccc2C=Cc2ccccc21"
A. 0.988 (inactive)

Q. Indicate its recorded normalized growth; the molecule in question is CC(C(=O)O)[C@H]1CCC2C3CC=C4C[C@@H](O)CC[C@]4(C)C3CC[C@@]21C (stereo not given in full)
A. 1.01 (inactive)

----------
- protocol_notes: chemical genetic growth profiling, strain panel (AID 1159580);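 note: tested at 20 µM; growth read once vehicle control cultures reached saturation at 30 °C; 1 = growth at the plate median or of vehicle wells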
- measurement_conditions: S. cerevisiae deletion strains, growth OD, locus YOL012C, strain htz1
The whole screen tested about 5,500 compounds, of which about 2,000 (36%) were called active. Not shown: some 18% with an inconclusive outcome. Some of the results follow.
Rule for this label: true (1) means normalized growth is less than 0.9; false (0) means normalized growth is at least 0.9.

As a guide, the following entries are already answered.
>>> label_class("CC(=O)[C@H]1CCC2C3CC=C4C[C@@H](O)CC[C@]4(C)C3CC[C@@]21C (stereo partly specified)")
"false (0)"
>>> label_class("CC(=O)O[C@@H]1CC2C(C)(C)[C@H](O)C[C@H](O)[C@]2(C)C2CC[C@@]3(C)[C@H](c4ccoc4)OC(=O)[C@H]4O[C@]43[C@@]21C (stereo partly specified)")
"true (1)"
>>> label_class("CC(=O)O[C@H]1C[C@@]2(C)[C@H](c3ccoc3)OC(=O)[C@H]3O[C@]32[C@@]2(C)C1[C@]1(C)C(C[C@H]2OC(C)=O)C(C)(C)[C@H](OC(C)=O)C[C@@H]1OC(C)=O (stereo partly specified)")
"false (0)"
>>> label_class("CCCN1C[C@H](CSC)C[C@@H]2c3cccc4[nH]cc(c34)C[C@H]21")
"true (1)"
>>> label_class("CCCCCCc1ccc(O)cc1O")
"false (0)"
>>> label_class("CN(C)CC/C=C1/c2ccccc2COc2ccccc21")
"false (0)"
>>> label_class("CC(=O)Oc1c(-c2ccccc2)oc2c(CC=C(C)C)c3c(c(OC(C)=O)c2c1=O)C=CC(C)(C)O3")
"true (1)"
>>> label_class("CC1(C)O[C@@H]2CC3C4CCC5=CC(=O)C=C[C@]5(C)[C@@]4(F)[C@@H](O)C[C@]3(C)[C@]2(C(=O)CO)O1 (stereo partly specified)")
"true (1)"
>>> label_class("CC(=O)OC1CC2C(C)(C)CCCC2(C)C2CCC3(C)C(c4ccoc4)OC(=O)C4OC43C12C (stereo unspecified)")
"true (1)"
>>> label_class("Clc1ccc(Cl)cc1")
"true (1)"

Q. Answer whether the compound "C[n+]1cc2c3c(ccc2c2ccc4cc5c(cc4c21)OCO5)OCO3" has normalized growth strictly less than 0.9
A. true (1)

Q. is_below(normalized growth, 0.9) for "CC(C)(Oc1ccc(Cl)cc1)C(=O)O" ?
A. true (1)

Q. Answer whether the compound CN1CCOC(c2ccccc2)c2ccccc2C1 (stereo unspecified) has normalized growth strictly less than 0.9
A. false (0)

Q. Input CCOC(=O)C1C(C=C(C)C)C1(C)C (stereo unspecified) ; condition: normalized growth strictly below 0.9. Does it hold?
A. true (1)

Q. # strict comparison: is reported normalized growth < 0.9? input = C=C1C2CC[C@@]3(C)[C@H](c4ccoc4)OC(=O)C[C@]13O[C@H]1CC(=O)C(C)(C)[C@H](C(O)C(=O)OC)[C@@]21C (stereo partly specified)
A. false (0)

Q. Hello, I'm reviewing records and need to know if normalized growth of CC(=O)O[C@@H]1CC2C(C)(C)C(=O)CC[C@]2(C)C2CC[C@@]3(C)[C@H](c4ccoc4)OC(=O)C4OC43[C@@]21C (stereo partly specified) is below 0.9. Could you check?
A. true (1)

Q. # TODO verify normalized growth < 0.9 strictly for this compound: "O=C(O)c1nc2cc(Cl)c(Cl)cc2[nH]c1=O"
A. true (1)

Q. Record "O=c1[nH]c2cc(Cl)c(Cl)cc2[nH]c1=O" : is its normalized growth strictly below 0.9?
A. false (0)

Q. Does the reported normalized growth of the following compound sit strictly below 0.9? "COc1ccc(-c2cc(=O)c3cc(OC)ccc3o2)cc1"
A. false (0)

Q. Please let me know if CCN(CCCCOC(=O)c1ccc(OC)c(OC)c1)C(C)Cc1ccc(OC)cc1 (stereo unspecified) shows normalized growth below 0.9.
A. false (0)

Q. Threshold test, normalized growth < 0.9: "CC(=O)Oc1cc(-c2coc3cc(OC(C)=O)c(OC(C)=O)c(OC(C)=O)c3c2=O)cc(OC(C)=O)c1OC(C)=O"
A. true (1)
